# credit: patent US20080090805A1

Here the recorded log10(microsomal CLint at 1 μM) is given for each entry.
- test_summary: Clearance study, liver microsomes (human)
- assay_context: pH 7.4
property_measured: log10(microsomal CLint at 1 μM) (log10 of the value in µL/min/mg)

{"compound": "CCN(CCNC(=O)c1ccc2c(c1)N=C(c1ccc(Cl)cc1)c1ccccc1S2)c1ccccc1 [drawing 1698]", "log10(microsomal CLint at 1 μM)": 2.20}
{"compound": "CCCCNC(=O)c1ccc2c(c1)N=C(c1ccc(Cl)s1)c1ccc(Cl)cc1S2 [drawing 1694]", "log10(microsomal CLint at 1 μM)": 1.18}
{"compound": "O=C(NCc1cccnc1)c1ccc2c(c1)N=C(c1cccc(F)c1)c1ccccc1S2 [drawing 1742]", "log10(microsomal CLint at 1 μM)": 1.86}
{"compound": "O=C(NCc1ccccc1)c1ccc2c(c1)N=C(c1cccc(Cl)c1)c1ccccc1S2 [drawing 1767]", "log10(microsomal CLint at 1 μM)": 1.36}
{"compound": "O=C(NCc1ccccc1)c1ccc2c(c1)N=C(C1CCCCC1)c1ccccc1S2 [drawing 1779]", "log10(microsomal CLint at 1 μM)": 1.91}
{"compound": "Cc1cccc(C2=Nc3cc(C(=O)NCc4ccc(C)o4)ccc3Sc3ccccc32)n1 [drawing 1789]", "log10(microsomal CLint at 1 μM)": 2.06}
{"compound": "Cc1ccc(N2CCN(C(=O)c3ccc4c(c3)N=C(c3ccc(Cl)cc3)c3ccccc3S4)CC2)c(C)c1 [drawing 1808]", "log10(microsomal CLint at 1 μM)": 1.57}
{"compound": "O=C(NCc1cccc(Cl)c1)c1ccc2c(c1)N=C(N1CCC(F)CC1)c1ccccc1S2 [drawing 1714]", "log10(microsomal CLint at 1 μM)": 1.98}

----------
- study_target: CB1 (mutant) (Homo sapiens, UniProt P21554)
- Sequence (P21554 1-417, change not shown): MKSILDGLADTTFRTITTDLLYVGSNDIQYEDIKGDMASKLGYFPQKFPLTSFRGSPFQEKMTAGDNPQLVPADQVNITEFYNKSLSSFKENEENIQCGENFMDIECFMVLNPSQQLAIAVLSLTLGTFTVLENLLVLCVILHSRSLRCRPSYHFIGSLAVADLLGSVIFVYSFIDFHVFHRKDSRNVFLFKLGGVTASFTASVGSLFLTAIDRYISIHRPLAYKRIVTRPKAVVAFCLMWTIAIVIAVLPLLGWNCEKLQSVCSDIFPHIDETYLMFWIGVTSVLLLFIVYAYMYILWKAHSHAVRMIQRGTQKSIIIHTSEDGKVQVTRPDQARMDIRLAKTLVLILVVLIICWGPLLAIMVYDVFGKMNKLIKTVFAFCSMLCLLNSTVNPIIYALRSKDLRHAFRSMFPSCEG
- test_summary: R-SAT functional receptor assay, CB1 (mutant, truncated after amino acid 417)
- Assay type: cell-based
- assay_context: Appendix A; R-SAT CB1; receptor form (mutant or wild-type) not stated; read-out: pIC50 (converted)
property_measured: log10 IC50 (log10 of the value in nM)

{"compound": "CN1c2ccc(C(=O)NCc3ccc(F)cc3)cc2N=C(c2ccc(F)cc2)c2ccccc21 [drawing 752]", "log10 IC50": 1.90}
{"compound": "O=C(NN1CCCCCC1)c1ccc2c(c1)N=C(c1ccc(Cl)cc1Cl)c1ccccc1S2 [drawing 876]", "log10 IC50": 2.30}
{"compound": "COCCNC(=O)c1ccc2c(c1)N=C(c1ccc(Cl)s1)c1ccccc1S2 [drawing 963]", "log10 IC50": 1.30}
{"compound": "O=C(NCc1ccc(F)cc1)c1ccc2c(c1)N=C(c1ccc(Cl)cc1)c1ccccc1S2 [drawing 589]", "log10 IC50": 0.50}
{"compound": "O=C(NC1CCC(F)(F)CC1)c1ccc2c(c1)N=C(c1ccccn1)c1ccccc1S2 [drawing 564]", "log10 IC50": 1.70}
{"compound": "CCCCN(C)C(=O)c1ccc2c(c1)N=C(c1ccc(F)cc1)c1ccccc1S2", "log10 IC50": 1.50}
{"compound": "O=C(NCCc1ccccn1)c1ccc2c(c1)N=C(c1ccc(F)cc1)c1ccccc1S2 [drawing 1145]", "log10 IC50": 1.60}
{"compound": "CCCCNC(=O)c1ccc2c(c1)N=C(c1ccc(Cl)s1)c1ccc(F)cc1S2 [drawing 1010]", "log10 IC50": 2.70}
